Values from ChEMBL document CHEMBL1201862

I'd be grateful if you could share measured GI50 for these entries.
- Tested on: RXF 393
- protocol.description: NCI tumour cell line growth inhibition, 48 h
Active and inactive are the calls of the source. Cut-off read from the data, not from the text of the source: active = GI50 up to about 1.1 µM and inactive = higher.

Reported GI50, compound CC1(C)C=CC(=O)C(O)C(C)(C)C1=O (stereo unspecified) : ____
66.5 µM (inactive)

Can you share its GI50? I mean this compound: O=c1c2ccccc2ncn1COCc1ccccc1
> 100 µM (inactive)

Quick one: GI50 for Oc1ccc(C(=C(Br)c2ccccc2)c2ccc(O)cc2)cc1 ?
12.1 µM (inactive)

I have this compound here, COc1ccc(N2C(=O)[C@@H]3[C@H](C2=O)c2[nH]c4ccccc4c2C2CCC(C(C)(C)C)C[C@@H]23)cc1 (stereo partly specified) , and I need its recorded GI50.
17.3 µM (inactive)

Look at this compound and give its reported GI50. CCOP(=O)(OCC)C(Nc1ccc(C(=O)O)cc1)c1ccc(C(Nc2ccc(C(=O)O)cc2)P(=O)(OCC)OCC)cc1 (stereo unspecified)
> 100 µM (inactive)

Look up GI50 for this compound: Cc1c2cc[n+](C)cc2c(C)c2c1[nH]c1ccc(OC(C)(C)C)cc12
> 100 µM (inactive)

Sample CCOC(=O)c1sc2nc(SC)nc3c2c1NC(=O)CN3c1cccc(F)c1 — what was its GI50?
16.7 µM (inactive)

Could you tell me which GI50 is on file for CN1C2CCC1/C(=C/c1cccc3c1OCO3)C(=O)/C2=C\c1cccc2c1OCO2 ?
11.3 µM (inactive)

Requested read-out: GI50. Entry: NC(=O)c1cc([N+](=O)[O-])cc([N+](=O)[O-])c1 [NITROMIDE]
> 100 µM (inactive)

// query GI50 value for entry N#C/C(=C\c1cccc(O)c1)C(N)=O
61.4 µM (inactive)

# input compound: CN1Cc2cc3c(cc2-c2ccccc21)OCO3 ; wanted: its GI50
> 100 µM (inactive)

###

- System: CCRF-CEM
- protocol.description: NCI tumour cell line growth inhibition, 48 h
The source made the active and inactive calls. Rule as the data show it: active = GI50 up to about 1.1 µM and inactive = higher.
The categories you may choose from are true (1) = active, false (0) = inactive

Per the records of this test, what outcome belongs to Cc1nnc2nc(-c3ccc(Cl)cc3Cl)cc(-c3ccc(Cl)cc3)n12 ?
false (0)

Hi, do you know how CN(C)c1nc(-c2ccccc2)c(C(=O)c2c[nH]c3ccccc23)s1 came out in this test?
false (0)

I'd appreciate the recorded outcome for O=C1c2ccccc2-c2nnc(-c3ccccc3)cc21 from this test.
false (0)

How did this test come out for O=C(CCOS(=O)(=O)CF)N1CCN(C(=O)CCOS(=O)(=O)CF)CC1 ?
false (0)

Hey, what did the test say about CCCCCCCCCCCCOCCCOP(=O)([O-])OCC[N+](C)(C)C ?
false (0)

What is the recorded call for this compound in the test? CCOC(=O)c1c(-c2cccc(Cl)c2)c(C(=O)OC)c(C)c2sc(C=O)nc12
false (0)

Each compound tested received a call. Report the one for C#C[C@]1(O)CC[C@H]2[C@@H]3CCC4=C/C(=N/OCCN(C)C)CC[C@]4(C)[C@H]3CC[C@@]21C .
false (0)

Tell me the recorded outcome of this test for CN1C(=S)CSc2ccccc21 .
false (0)

Identify the outcome logged in this assay for the compound shown: C/C(=N\NC(N)=S)C(CN(CC(C)C)CC(C)C)C(=O)Nc1ccc(C)cc1C (centres undefined)
false (0)

Look up the recorded call for C/C(=N/NC(=S)Nc1ccc([N+](=O)[O-])cc1)c1cccc(/C(C)=N\NC(=S)Nc2ccc([N+](=O)[O-])cc2)n1 in this test.
true (1)

# fetch the recorded call for Cc1ccc(Oc2ccc(C(=O)c3cccc(C(=O)c4ccc(Oc5ccc(C)cc5)cc4)n3)cc2)cc1 here
false (0)

What is the recorded call for this compound in the test? CC(C)OC(=O)OCSc1ccccc1/N=C/c1cccc([N+](=O)[O-])c1
false (0)

What classification did Oc1c(N2CCOCC2)cc(-c2cc(N3CCOCC3)c(O)c3ccccc23)c2ccccc12 end up with in this test?
false (0)

Just curious, what result did C/C(=C\[Si](C)(C)c1ccco1)C(C)(O)[C@H](C)O (some centres undefined) get here?
false (0)

What did this assay record as the result for CCCCC(=O)/C=c1/cc(C)[nH]c2cccc3cnn1c32 ?
false (0)

Field: outcome | Entry: CCc1ccc(COC(=O)C2=C(C)NC(C)=C(C(=O)OCc3ccc(CC)cn3)C2C2=COCCO2)nc1
false (0)

# fetch the recorded call for CC(C)(C)OC(=O)CC(NC(=O)OC(C)(C)C)C(=O)NC(C(=O)O)C(O)c1ccccc1 (centres undefined) here
false (0)

In this assay, the call recorded for C=C1c2nc3ccccc3n2C=C(c2ccc(OC)cc2)N1c1ccccc1 was what?
false (0)

Kindly provide the recorded test outcome for the following compound: CCCCOC(C)(C)/C=C/C(O)[C@](C)(O)[C@H]1[C@H](O)C[C@@]2(C)[C@@H]3CCc4c(cc(OC5OC(CO)C(O)C(O)C5O)c(O)c4C)C3(C)C(=O)C[C@]12C (some centres undefined)
false (0)

###

- Test system: UACC-257
- protocol.description: NCI tumour cell line growth inhibition, 48 h
Calls of active or inactive are those of the source. Cut-off read from the data, not from the text of the source: active = GI50 up to about 1.1 µM and inactive = higher.
Record form. Attribute: GI50. Fill in for each entry.

Can you share its GI50? I mean this compound: N=C(N)NS(=O)(=O)c1ccc(NCc2c3ccccc3nc3ccccc23)cc1
14.5 µM (inactive)

Return reported GI50; argument: N#C/C(=C1/c2cc([N+](=O)[O-])ccc2-c2c1cc([N+](=O)[O-])cc2[N+](=O)[O-])N1CCCCC1
> 100 µM (inactive)

Look up GI50: CC(=O)O[C@H]1CCC2[C@@H]3CCC4=C(O)C(=O)C(C#N)C[C@]4(C)C3CC[C@@]21C (stereo not given in full)
56.5 µM (inactive)

Name the recorded GI50 for CN(C)CC1(C)CC/C(=C\c2ccccc2)C1=O (stereo not given) .
> 100 µM (inactive)

Please report the recorded GI50 for O=C(O)Cc1ccc(Nc2nc3ccccc3nc2C(=O)O)cc1 .
> 100 µM (inactive)

###

- System: 786-0
- protocol.description: NCI tumour cell line growth inhibition, 48 h
Calls of active or inactive are those of the source. Rule as the data show it: active = GI50 up to about 1.1 µM and inactive = higher.
Exercise: for every item that follows, state its recorded GI50.

Reported GI50, compound Cc1cc2nc3c(C#N)c4c(c(Nc5ccc(Cl)cc5)n3c2cc1C)CCC4 : ____
15.9 µM (inactive)

I have this compound here, CC(NO)/C(=N/O)c1ccco1 (stereo not given) , and I need its recorded GI50.
> 10 µM (inactive)

Dear colleague, I am looking for the recorded GI50 of the following compound: CN(C)CC/C(=N\Nc1ccc(Cl)c(Cl)c1)c1ccccc1
1.71 µM (inactive)

Look at this compound and give its reported GI50. O=C1CN=C(C[N+](=O)[O-])c2ccccc21
> 100 µM (inactive)

Which GI50 reading was recorded for the compound COc1ccc(N(c2ccc(C#N)cc2)c2ccc(C#N)cc2)cc1 ?
> 100 µM (inactive)

I'd like to know its GI50. The compound in question is C[C@]12CCC3c4ccc(O)cc4CC[C@H]3C1CC(=O)NC2=O (stereo not given in full)
> 10 µM (inactive)

// query GI50 value for entry NC(=O)c1cc([N+](=O)[O-])cc([N+](=O)[O-])c1 [NITROMIDE]
> 100 µM (inactive)

GI50 lookup needed for Nc1nc(Cl)cc(NCC2(CCO)CCC2)n1 , thanks.
> 100 µM (inactive)

Could you tell me which GI50 is on file for O=C1N=CN=C2C=CC(Cl)=C(I)C12 (stereo not given) ?
> 100 µM (inactive)

Request the reported GI50 associated with C/C=C/C[C@@H](C)C(=O)C1C(=O)N[C@@H](C(C)C)C(=O)N(C)CC(=O)N(C)[C@@H](CC(C)C)C(=O)N[C@@H](C(C)C)C(=O)N(C)[C@@H](CC(C)C)C(=O)N[C@@H](C)C(=O)N[C@@H](C)C(=O)N(C)[C@@H](CC(C)C)C(=O)N(C)[C@@H](CC(C)C)C(=O)N(C)[C@@H](C(C)C)C(=O)N1C (stereo not given in full)
7.76 µM (inactive)

Could you tell me which GI50 is on file for CCCCCCCCCCCCCCCCCc1nc(Cl)nc(Cl)c1Cl ?
> 100 µM (inactive)

Which measured GI50 value corresponds to OC1(C(O)(c2ccc(-c3ccccc3)cc2)c2ccc(-c3ccccc3)cc2)CCCCC1 ?
> 100 µM (inactive)

If you can, please state the reported GI50 value of O=c1c2ccccc2ncn1COCc1ccccc1 .
> 100 µM (inactive)

What value of GI50 has been recorded for this entry: CC(NNC(=O)c1cc[n+]([BH2-]C#N)cc1)c1ccc(Cl)cc1Cl (stereo not given)
49.1 µM (inactive)

What measured GI50 goes with CC(=O)N(C)c1ccc(Nc2ccnc3ccc4nn(C)nc4c23)cc1 ?
26.9 µM (inactive)

State the recorded GI50 for this entry: Clc1ccc(OCc2nnc3sc(-c4ccc(-c5ccc(Cl)cc5Cl)o4)nn23)c(Cl)c1
13.3 µM (inactive)

Please report the recorded GI50 for CN1Cc2cc3c(cc2-c2ccccc21)OCO3 .
> 100 µM (inactive)

What value of GI50 has been reported for the following compound? CCCNC(=O)OCc1c(COC(=O)NCCC)c(-c2ccc(Cl)c(Cl)c2)n2c1CCC2
2.82 µM (inactive)

What value of GI50 has been recorded for this entry: O=C1/C(=C\c2cccc(Oc3ccccc3)c2)SC(c2ccccc2)N1c1cc(Cl)ccc1Cl (stereo not given)
27 µM (inactive)

Returns the measured GI50 for the input compound. Input: CCCCCCc1cc2cc(-c3csc(-c4ccc(OC)cc4)n3)c(=O)oc2cc1O
5.28 µM (inactive)
